All figures here come from ChEMBL document CHEMBL2407030.

target: Neuronal acetylcholine receptor; alpha4/beta2 (Homo sapiens, UniProt P17787+P43681)
run description: Agonist activity at alpha4beta2 nACHR in human SHEP1 cell membranes assessed as stimulation of calcium flux by FLIPR assay relative to control
Format: cell-based
observation type: Emax (%)

INSERT INTO results (molecule, observation_type, unit_tag, experimental_result) VALUES
  ('CC(=O)N1CC2CNCC(C2)C1 (mixture of isomers)', 'Emax', '%', 34),
  ('O=C([C@@H]1C[C@@H]1F)N1CC2CNCC(C2)C1 (mixture of isomers)', 'Emax', '%', 11),
  ('O=C(c1ccco1)[C@H]1C[C@H]2CNC[C@H]2C1 (mixture of isomers)', 'Emax', '%', 94),
  ('COC(=O)N1CC2CNCC(C2)C1 (mixture of isomers)', 'Emax', '%', 65),
  ('C[C@@H]1C[C@H]1C(=O)N1CC2CNCC(C2)C1 (mixture of isomers)', 'Emax', '%', 23),
  ('CCC(=O)N1CC2CNCC(C2)C1 (mixture of isomers)', 'Emax', '%', 83),
  ('CN1CCC[C@H]1c1cccnc1', 'Emax', '%', 100),
  ('O=C([C@@H]1C[C@@H]1F)N1CC2CNCC2C1 (mixture of isomers)', 'Emax', '%', 120),
  ('O=C([C@H]1C[C@@H]1F)N1CC2CNCC2C1 (mixture of isomers)', 'Emax', '%', 140),
  ('CC(=O)N1CC2CNCC2C1 (mixture of isomers)', 'Emax', '%', 110);
